molecular target: Histone deacetylase 9 (Homo sapiens, UniProt Q9UKV0)
Sequence (Q9UKV0 whole entry): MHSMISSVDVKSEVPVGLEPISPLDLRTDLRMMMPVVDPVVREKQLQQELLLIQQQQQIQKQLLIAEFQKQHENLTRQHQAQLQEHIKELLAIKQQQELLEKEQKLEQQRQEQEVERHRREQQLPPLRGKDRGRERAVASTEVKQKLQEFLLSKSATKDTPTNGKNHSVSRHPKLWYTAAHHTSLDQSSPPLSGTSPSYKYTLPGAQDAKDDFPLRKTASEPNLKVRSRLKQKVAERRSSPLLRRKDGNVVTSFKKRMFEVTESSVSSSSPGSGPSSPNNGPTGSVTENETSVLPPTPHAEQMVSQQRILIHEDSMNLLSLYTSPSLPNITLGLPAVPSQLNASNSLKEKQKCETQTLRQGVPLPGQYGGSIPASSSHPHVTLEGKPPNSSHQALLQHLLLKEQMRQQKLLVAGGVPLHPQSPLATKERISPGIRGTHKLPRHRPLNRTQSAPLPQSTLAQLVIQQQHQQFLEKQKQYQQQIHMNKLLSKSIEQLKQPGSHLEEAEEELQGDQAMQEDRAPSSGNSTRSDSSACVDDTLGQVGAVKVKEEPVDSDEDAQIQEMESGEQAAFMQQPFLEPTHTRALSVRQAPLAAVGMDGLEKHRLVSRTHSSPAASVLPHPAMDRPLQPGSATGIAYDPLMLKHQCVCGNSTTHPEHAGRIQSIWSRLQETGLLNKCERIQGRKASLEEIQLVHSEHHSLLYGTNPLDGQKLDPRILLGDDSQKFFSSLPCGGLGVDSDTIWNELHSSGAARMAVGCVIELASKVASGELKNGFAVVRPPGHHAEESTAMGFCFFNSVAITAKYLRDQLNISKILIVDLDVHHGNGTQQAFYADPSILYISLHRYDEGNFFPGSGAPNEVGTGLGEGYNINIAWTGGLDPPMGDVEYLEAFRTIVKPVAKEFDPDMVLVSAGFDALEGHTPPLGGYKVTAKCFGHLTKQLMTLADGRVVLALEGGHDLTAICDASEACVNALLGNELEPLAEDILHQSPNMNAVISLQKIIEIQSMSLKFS
TEST_READOUT: IC50

Consider the molecule COc1nc(-c2ccc(NC(=O)Nc3ccc(C(=O)NCCCCCC(=O)Nc4ccccc4N)cc3)cc2)nc(N2CCOCC2)n1 tested on Histone deacetylase 9 (Homo sapiens, UniProt Q9UKV0); state its IC50.
> 10 µM

---

biological target: Phosphatidylinositol 4,5-bisphosphate 3-kinase catalytic subunit alpha isoform (Homo sapiens, UniProt P42336); assay: Inhibition of PI3Kalpha (unknown origin) using PIP2 as substrate incubated for 1 hrs in presence of ATP by ADP-Glo kinase assay
Sequence (P42336 whole entry, canonical isoform): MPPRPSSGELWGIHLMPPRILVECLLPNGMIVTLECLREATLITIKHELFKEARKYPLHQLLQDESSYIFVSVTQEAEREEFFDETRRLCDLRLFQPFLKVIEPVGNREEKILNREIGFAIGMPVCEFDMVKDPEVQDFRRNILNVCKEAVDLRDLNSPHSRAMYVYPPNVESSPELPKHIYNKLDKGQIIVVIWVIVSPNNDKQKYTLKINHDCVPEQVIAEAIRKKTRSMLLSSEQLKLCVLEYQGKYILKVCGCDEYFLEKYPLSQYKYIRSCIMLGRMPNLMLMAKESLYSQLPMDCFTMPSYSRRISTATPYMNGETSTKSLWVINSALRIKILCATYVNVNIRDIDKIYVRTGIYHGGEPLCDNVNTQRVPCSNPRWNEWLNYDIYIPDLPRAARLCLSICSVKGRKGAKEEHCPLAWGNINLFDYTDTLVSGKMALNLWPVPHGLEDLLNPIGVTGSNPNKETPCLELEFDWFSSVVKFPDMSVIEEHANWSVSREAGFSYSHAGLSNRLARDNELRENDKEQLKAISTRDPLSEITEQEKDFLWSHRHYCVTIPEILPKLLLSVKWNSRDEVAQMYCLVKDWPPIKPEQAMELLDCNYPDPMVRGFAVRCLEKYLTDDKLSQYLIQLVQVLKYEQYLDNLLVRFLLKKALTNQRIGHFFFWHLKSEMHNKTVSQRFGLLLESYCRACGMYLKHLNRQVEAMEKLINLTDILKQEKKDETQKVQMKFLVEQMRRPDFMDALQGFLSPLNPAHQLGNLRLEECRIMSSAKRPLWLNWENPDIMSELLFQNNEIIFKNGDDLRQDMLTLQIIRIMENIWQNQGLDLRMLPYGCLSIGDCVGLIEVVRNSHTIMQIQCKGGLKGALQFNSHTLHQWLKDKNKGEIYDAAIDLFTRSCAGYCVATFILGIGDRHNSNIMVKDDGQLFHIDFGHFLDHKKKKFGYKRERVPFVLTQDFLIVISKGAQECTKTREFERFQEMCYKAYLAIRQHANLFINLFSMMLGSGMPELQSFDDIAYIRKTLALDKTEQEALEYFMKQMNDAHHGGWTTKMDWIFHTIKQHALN
Item-by-item account of IC50
Use nM as the unit, but write only the number.

Worked examples follow.
[[record]]
line_notation = "Nc1ccccc1NC(=O)c1ccc(NC(=O)Nc2ccc(-c3nc(OC4COC4)nc(N4CCOCC4)n3)cc2)cc1"
quantitative_result = 2.4

[[record]]
line_notation = "CNCCNC(=O)c1ccc(NC(=O)Nc2ccc(-c3nc(OC)nc(N4CCOCC4)n3)cc2)cc1"
quantitative_result = 2.4

[[record]]
line_notation = "Nc1ccccc1NC(=O)CCNC(=O)c1ccc(NC(=O)Nc2ccc(-c3nc(N4CCOCC4)nc(N4CCOCC4)n3)cc2)cc1"
quantitative_result = 51.7

[[record]]
line_notation = "Nc1cc(F)ccc1NC(=O)c1ccc(NC(=O)Nc2ccc(-c3nc(N4CCOCC4)nc(N4CCOCC4)n3)cc2)cc1"
quantitative_result = 17


Respond only with IC50 recorded for COc1nc(-c2ccc(NC(=O)Nc3ccc(C(=O)Nc4ccccc4N)cc3)cc2)nc(N2CCOCC2)n1
11.2

Respond only with IC50 recorded for COc1nc(-c2ccc(NC(=O)Nc3ccc(C(=O)Nc4ccc(F)c(F)c4N)cc3)cc2)nc(N2CCOCC2)n1
20.5

Respond only with IC50 recorded for Nc1ccccc1NC(=O)CCCCNC(=O)c1ccc(NC(=O)Nc2ccc(-c3nc(N4CCOCC4)nc(N4CCOCC4)n3)cc2)cc1
13.3

---

test: Half-life in ICR mouse at 1 mg/kg, iv measured after 24 hrs by LC-MS/MS analysis; type: ADME, organism-based; conditions: in vivo
TEST_READOUT: half-life (h)
Use h as the unit, but write only the number.

Respond only with half-life recorded for COc1nc(-c2ccc(NC(=O)Nc3ccc(C(=O)NCCCCCC(=O)Nc4ccccc4N)cc3)cc2)nc(N2CCOCC2)n1
10

---

experiment: Stability in human liver microsomes assessed as compound remaining at […] preincubated for 5 mins followed by NADPH addition and measured immediately by LC-MS/MS analysis; format: ADME, Microsome; conditions: read-out: Stability
TEST_READOUT: remaining at 0 min (%)
Use % as the unit, but write only the number.

Respond only with remaining at 0 min recorded for COc1nc(-c2ccc(NC(=O)Nc3ccc(C(=O)NCCCCCC(=O)Nc4ccccc4N)cc3)cc2)nc(N2CCOCC2)n1
100

---

Entries with reported pIC50 on Histone deacetylase 2 (Homo sapiens, UniProt Q92769)
Sequence (Q92769 whole entry): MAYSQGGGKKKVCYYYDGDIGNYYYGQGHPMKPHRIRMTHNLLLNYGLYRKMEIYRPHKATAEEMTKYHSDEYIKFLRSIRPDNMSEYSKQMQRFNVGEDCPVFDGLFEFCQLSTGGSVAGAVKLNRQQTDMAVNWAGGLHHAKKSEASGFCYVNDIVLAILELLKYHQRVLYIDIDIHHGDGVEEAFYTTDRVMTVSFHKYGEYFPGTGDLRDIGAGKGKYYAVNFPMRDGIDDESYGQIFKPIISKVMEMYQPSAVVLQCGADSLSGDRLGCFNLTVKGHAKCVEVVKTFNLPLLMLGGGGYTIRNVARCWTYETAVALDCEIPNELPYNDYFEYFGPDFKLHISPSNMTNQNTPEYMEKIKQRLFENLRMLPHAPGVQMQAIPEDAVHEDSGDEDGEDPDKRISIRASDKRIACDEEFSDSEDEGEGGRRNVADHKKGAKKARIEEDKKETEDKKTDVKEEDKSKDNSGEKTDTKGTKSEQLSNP
pIC50: −log10 of the molar value.

Worked examples follow.
[[record]]
molecule = "Nc1ccccc1NC(=O)CCCCNC(=O)c1ccc(NC(=O)Nc2ccc(-c3nc(N4CCOCC4)nc(N4CCOCC4)n3)cc2)cc1"
system_name = "Histone deacetylase 2 (Homo sapiens, UniProt Q92769)"
test_readout = "pIC50"
result = "< 5.00"

[[record]]
molecule = "Nc1ccccc1NC(=O)CCCCCCNC(=O)c1ccc(NC(=O)Nc2ccc(-c3nc(OC4CCOC4)nc(N4CCOCC4)n3)cc2)cc1 (stereo unspecified)"
system_name = "Histone deacetylase 2 (Homo sapiens, UniProt Q92769)"
test_readout = "pIC50"
result = 6.62

[[record]]
molecule = "Nc1ccccc1NC(=O)CNC(=O)c1ccc(NC(=O)Nc2ccc(-c3nc(N4CCOCC4)nc(N4CCOCC4)n3)cc2)cc1"
system_name = "Histone deacetylase 2 (Homo sapiens, UniProt Q92769)"
test_readout = "pIC50"
result = "< 5.00"

[[record]]
molecule = "Nc1ccccc1NC(=O)CCCCCCCNC(=O)c1ccc(NC(=O)Nc2ccc(-c3nc(N4CCOCC4)nc(N4CCOCC4)n3)cc2)cc1"
system_name = "Histone deacetylase 2 (Homo sapiens, UniProt Q92769)"
test_readout = "pIC50"
result = 6.31

[[record]]
molecule = "Nc1cc(F)ccc1NC(=O)c1ccc(NC(=O)Nc2ccc(-c3nc(N4CCOCC4)nc(N4CCOCC4)n3)cc2)cc1"
system_name = "Histone deacetylase 2 (Homo sapiens, UniProt Q92769)"
test_readout = "pIC50"
result = "< 5.00"


Turning now to a further molecule:
Consider the molecule Nc1ccccc1NC(=O)c1ccc(NC(=O)Nc2ccc(-c3nc(N4CCOCC4)nc(N4CCOCC4)n3)cc2)cc1 tested on Histone deacetylase 2 (Homo sapiens, UniProt Q92769); state its pIC50.
< 5.00
